experimental-target: RXFP2 (Homo sapiens, UniProt Q8WXD0)
Sequence (Q8WXD0 whole entry, species assumed): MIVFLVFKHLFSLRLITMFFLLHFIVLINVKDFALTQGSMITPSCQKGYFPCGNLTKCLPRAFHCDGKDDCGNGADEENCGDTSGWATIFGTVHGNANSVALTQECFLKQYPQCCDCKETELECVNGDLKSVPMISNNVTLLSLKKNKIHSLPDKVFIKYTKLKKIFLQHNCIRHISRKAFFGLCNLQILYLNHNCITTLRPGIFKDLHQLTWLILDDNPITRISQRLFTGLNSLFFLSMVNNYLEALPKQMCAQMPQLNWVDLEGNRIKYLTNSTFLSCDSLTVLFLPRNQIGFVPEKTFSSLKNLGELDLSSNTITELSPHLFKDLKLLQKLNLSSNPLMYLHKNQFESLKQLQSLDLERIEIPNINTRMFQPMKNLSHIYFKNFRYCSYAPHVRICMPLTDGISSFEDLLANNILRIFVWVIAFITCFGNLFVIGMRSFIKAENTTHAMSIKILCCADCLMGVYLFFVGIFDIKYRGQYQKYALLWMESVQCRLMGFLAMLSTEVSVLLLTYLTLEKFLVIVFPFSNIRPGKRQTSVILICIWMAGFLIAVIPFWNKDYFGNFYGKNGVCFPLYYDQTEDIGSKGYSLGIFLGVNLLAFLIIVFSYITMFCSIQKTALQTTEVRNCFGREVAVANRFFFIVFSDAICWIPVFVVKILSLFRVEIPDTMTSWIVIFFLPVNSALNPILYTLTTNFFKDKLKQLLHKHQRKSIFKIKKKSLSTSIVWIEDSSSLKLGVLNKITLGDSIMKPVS
assay-notes: Single-cell FRET cAMP
Positions of bridges follow the written chain, without caps; N, C: chain ends. Chains are numbered I, II in the order given. No end group written: not given here.
measurement-type: EC50

So for I: PTPEMREKLCGHHFVRALVRVCGGPRWSTEA / II: AAATNPARYCCLSGCTQQDLLTLCPY (disulfide I:10-II:11, I:22-II:24, II:10-II:15) [INSL3] , the logged EC50 turned out to be 7.74 nM

* * *

experimental-target: RXFP2 (Homo sapiens)
assay-notes: Single-cell FRET cAMP
Positions of bridges follow the written chain, without caps; N, C: chain ends. Chains are numbered I, II in the order given. No end group written: not given here.
measurement-type: pEC50
Numbers only, as −log10 of the molar value.

So for I: PTPEMREKLCGHHFVRALVRVCGGPRWSTEA / II: AAATNPARYCCLSGCTQQDLLTLCPY (disulfide I:10-II:11, I:22-II:24, II:10-II:15) [INSL3] , the logged pEC50 turned out to be 8.85
